# target of assay: Isocitrate dehydrogenase [NADP], mitochondrial (Homo sapiens, UniProt P48735)
# Sequence (P48735 whole entry): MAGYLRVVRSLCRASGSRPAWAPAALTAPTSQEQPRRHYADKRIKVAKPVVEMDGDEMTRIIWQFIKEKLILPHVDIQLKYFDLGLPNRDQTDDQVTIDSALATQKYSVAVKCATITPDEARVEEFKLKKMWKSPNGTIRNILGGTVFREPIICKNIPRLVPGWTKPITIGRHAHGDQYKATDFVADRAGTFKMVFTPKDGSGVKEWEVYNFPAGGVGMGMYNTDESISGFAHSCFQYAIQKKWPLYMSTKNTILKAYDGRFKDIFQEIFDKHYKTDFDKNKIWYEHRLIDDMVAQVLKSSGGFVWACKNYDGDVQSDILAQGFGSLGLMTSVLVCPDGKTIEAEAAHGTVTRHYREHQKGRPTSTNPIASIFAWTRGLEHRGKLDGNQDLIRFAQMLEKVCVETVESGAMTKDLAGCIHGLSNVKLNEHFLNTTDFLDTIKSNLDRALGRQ
Let's look at some IC50 data for Isocitrate dehydrogenase [NADP], mitochondrial (Homo sapiens, UniProt P48735) that I collected from the literature.

Examples with their reported IC50 follow.
compound	IC50
O=S(=O)(NC1CC1)c1ccc(-c2ccsc2)c(Nc2nc3cc(F)ccc3[nH]2)c1	> 100 µM
CC(C)CCOc1nc(N2C[C@@H]3[C@H](C2)[C@H]3C(=O)O)ccc1C(=O)NC1C2CC3CC1CC(O)(C3)C2 (stereo not given in full)	> 50 µM
CC(C)O[C@H]1CC[C@H](C(=O)N2Cc3cccnc3Nc3ccc(N4C[C@H]5CC[C@@H]4CO5)cc32)OC1	> 50 µM
O=S(=O)(NC1CC1)c1ccc(-c2ccsc2)c(Nc2nc3ccc(Br)c(Br)c3[nH]2)c1	> 100 µM

# get_value(readout= IC50, system= Isocitrate dehydrogenase [NADP], mitochondrial (Homo sapiens, UniProt P48735)) for `N#Cc1ccnc(N2C(=O)CC[C@H]2C(=O)N(c2cncc(F)c2)[C@H](C(=O)NC2CC(F)(F)C2)c2ccccc2Cl)c1`
7.2 µM
